From: patent US7074789B2

IC50 for assorted compounds
Target: Lck (Homo sapiens)
Construct: Kinases are expressed as either kinase domains or full length constructs; made in house
Sequence (P06239 whole entry, species assumed, the tested form may be a part): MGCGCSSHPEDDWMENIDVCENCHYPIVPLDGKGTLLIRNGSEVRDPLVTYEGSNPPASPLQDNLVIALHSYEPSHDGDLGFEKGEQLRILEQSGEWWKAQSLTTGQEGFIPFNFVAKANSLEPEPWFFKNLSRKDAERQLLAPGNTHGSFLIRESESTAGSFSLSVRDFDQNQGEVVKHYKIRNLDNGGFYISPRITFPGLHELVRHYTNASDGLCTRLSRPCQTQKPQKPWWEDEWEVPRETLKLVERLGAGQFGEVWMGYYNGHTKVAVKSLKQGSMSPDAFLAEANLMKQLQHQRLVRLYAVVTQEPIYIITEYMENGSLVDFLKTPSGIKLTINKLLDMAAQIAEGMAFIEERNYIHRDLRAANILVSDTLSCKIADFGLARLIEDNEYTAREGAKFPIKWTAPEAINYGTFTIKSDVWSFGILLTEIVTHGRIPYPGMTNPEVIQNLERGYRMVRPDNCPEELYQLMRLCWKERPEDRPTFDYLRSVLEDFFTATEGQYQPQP
Assay: Kinase inhibition assay (33P transfer), Lck
Type: biochemical
Conditions: Table 3, class symbols; read-out: Lck-1
Text: The inhibitor compounds described herein are screened in the following manner. […] Kinases are expressed as either kinase domains or full length constructs fused to glutathione S-transferase (GST) or polyHistidine tagged fusion proteins in either E. colior Baculovirus-High Five expression systems. […]

>>> obsvalue("Cc1ccc2c(c1)CCCN2c1ncnc(Nc2c(C)ccc3ccccc23)n1 [Compound 854]")
"> 11.8 µM"
>>> obsvalue("COc1ccc(Nc2ncnc(NCc3ncc(C(F)(F)F)cc3Cl)n2)cc1OC [Compound 858]")
"> 10.2 µM"
>>> obsvalue("Fc1ccc(CNc2ncccc2-c2ncnc(Nc3cccc(Cn4ccnn4)c3)n2)cc1 [Compound 1102]")
"> 9.92 µM"

Item: COc1ccc(Nc2ncnc(Nc3cc(-c4ccc(C)cc4)n[nH]3)n2)c(C)c1 [Compound 1126] | IC50: < 1.03 µM

Item: COc1cc(Nc2ncnc(N3CCCc4ccc(Cl)cc43)n2)cc(OC)c1OC [Compound 645] | IC50: > 10.5 µM

Item: COc1cc(Nc2ncnc(-c3cccnc3Nc3cccc4c3CCCC4)n2)cc(OC)c1OC [Compound 841] | IC50: > 9.29 µM

Item: COc1ccc(Nc2ncnc(NCCc3ccc(Cl)c(Cl)c3)n2)cc1OC [Compound 859] | IC50: > 10.7 µM

Item: CCOc1cccc(Nc2ncnc(Nc3cc(-c4ccc(C(=O)OC)cc4)n[nH]3)n2)c1 [Compound 812] | IC50: 0.927 to 5.56 µM

* * *

biological target: Lck (Homo sapiens); construct: Kinases are expressed as either kinase domains or full length constructs; made in house; assay: Kinase inhibition assay (33P transfer), Lck; type: biochemical; settings: Table 3; read-out: Lck-1
pIC50: −log10 of the molar value.
measuredMetric: pIC50

Answered cases to consult:
>>> obsvalue("COc1cc(Nc2ncnc(-c3cccnc3)n2)cc(OC)c1OC [Compound 219]")
"< 4.88"
>>> obsvalue("COc1cc(Nc2ncnc(Nc3ccc(NCc4ccccc4)cc3)n2)cc(OC)c1OC [Compound 93]")
"< 5.01"
>>> obsvalue("COc1cc(Nc2ncnc(NC(=O)Nc3ccccc3)n2)cc(OC)c1OC [Compound 852]")
"< 4.94"
>>> obsvalue("COc1ccc(Nc2ncnc(Nc3cc(OC)c(OC)c(OC)c3)n2)cc1OC [Compound 36]")
"5.24 to 6.01"
>>> obsvalue("COc1cc(Nc2ncnc(-n3ccc4c(OC)cccc43)n2)cc(OC)c1OC [Compound 238]")
"< 4.96"

Pending compound:
Item: COc1cc(Nc2ncnc(Nc3cccc4ccccc34)n2)cc(OC)c1OC [Compound 98] | pIC50: > 6.00

* * *

List of pIC50 tested on Lyn (Homo sapiens, UniProt P07948).
Sequence (P07948 whole entry, species assumed): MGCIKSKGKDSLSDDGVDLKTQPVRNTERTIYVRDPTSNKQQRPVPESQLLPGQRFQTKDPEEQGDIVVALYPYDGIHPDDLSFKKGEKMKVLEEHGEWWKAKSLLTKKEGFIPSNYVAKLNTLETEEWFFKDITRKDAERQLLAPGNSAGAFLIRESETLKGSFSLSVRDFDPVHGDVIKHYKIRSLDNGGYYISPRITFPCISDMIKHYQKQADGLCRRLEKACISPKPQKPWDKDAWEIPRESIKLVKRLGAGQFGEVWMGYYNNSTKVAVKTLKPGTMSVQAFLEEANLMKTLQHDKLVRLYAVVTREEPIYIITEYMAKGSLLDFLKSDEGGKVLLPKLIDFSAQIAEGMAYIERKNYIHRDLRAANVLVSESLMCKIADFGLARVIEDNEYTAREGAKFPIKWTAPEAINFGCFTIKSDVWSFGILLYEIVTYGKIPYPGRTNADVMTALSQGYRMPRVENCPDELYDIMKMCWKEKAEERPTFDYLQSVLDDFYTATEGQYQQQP
pIC50: −log10 of the molar value.

>>> obsvalue("COc1cc(Nc2ncnc(-n3c(N)nc4cc([N+](=O)[O-])ccc43)n2)cc(OC)c1OC")
"< 4.99"

Item COc1cc(Nc2ncnc(Nc3ccc(OCc4ccccc4)cc3)n2)cc(OC)c1 was tested on Lyn (Homo sapiens, UniProt P07948); the reported pIC50 is 5.09 to 5.25

Item COc1cc(Nc2ncnc(Nc3cccc(O)c3)n2)cc(OC)c1OC was tested on Lyn (Homo sapiens, UniProt P07948); the reported pIC50 is > 5.97

Item C=CCN(c1ccc(Cl)cc1)c1ncnc(Nc2cc(OC)c(OC)c(OC)c2)n1 was tested on Lyn (Homo sapiens, UniProt P07948); the reported pIC50 is > 6.03

Item CCOc1ccc(Nc2ncnc(Nc3ccc(OCc4ccccc4)cc3)n2)cc1OCC was tested on Lyn (Homo sapiens, UniProt P07948); the reported pIC50 is < 5.01

Item COc1cc(Nc2ncnc(-c3c(O)[nH]c4ccccc34)n2)cc(OC)c1OC was tested on Lyn (Homo sapiens, UniProt P07948); the reported pIC50 is 5.21 to 5.99

Item COc1cc(Nc2ncnc(-n3c(NC4CCCc5ccccc54)nc4ccccc43)n2)cc(OC)c1OC (stereo not drawn) was tested on Lyn (Homo sapiens, UniProt P07948); the reported pIC50 is 5.34 to 6.12

Item COc1cc(Nc2ncnc(NC(=O)Nc3ccccc3)n2)cc(OC)c1OC was tested on Lyn (Homo sapiens, UniProt P07948); the reported pIC50 is < 4.94

Item CCOC(=O)C(Nc1nc2ccccc2n1-c1ncnc(Nc2cc(OC)c(OC)c(OC)c2)n1)c1ccccc1 (stereo not drawn) was tested on Lyn (Homo sapiens, UniProt P07948); the reported pIC50 is < 5.09

Item COc1cc(Nc2ncnc(-n3c(Nc4ccc(C)cc4)nc4ccccc43)n2)cc(OC)c1OC was tested on Lyn (Homo sapiens, UniProt P07948); the reported pIC50 is 5.30 to 6.08

Item CCN(CC)CCOc1ccc(Nc2ncnc(-n3c(N)nc4ccccc43)n2)cc1OC was tested on Lyn (Homo sapiens, UniProt P07948); the reported pIC50 is 5.27 to 6.05

Item COc1cc(Nc2ncnc(Nc3cc(-c4ccccc4)nn3C)n2)cc(OC)c1OC was tested on Lyn (Homo sapiens, UniProt P07948); the reported pIC50 is > 6.03

Item COc1cc(Nc2ncnc(-n3c(=O)[nH]c4ccccc43)n2)cc(OC)c1OCCN1CCOCC1 was tested on Lyn (Homo sapiens, UniProt P07948); the reported pIC50 is < 5.04

Item COCCOc1ccc(Nc2ncnc(Nc3cc(-c4ccco4)n[nH]3)n2)cc1OCCOC was tested on Lyn (Homo sapiens, UniProt P07948); the reported pIC50 is 5.29 to 6.07
